Test system: desmolase
runDescription: Cholesterol side-chain cleavage (desmolase, P450 scc) inhibition
experimentalParameters: read-out: DESMOLASE IC-50; Table 2; 30 min at 37° C.; human placenta or bovine adrenals as enzyme source, table title says human
Rule: measured IC50 below 50 µM gets MET; anything equal to or greater than 50 µM gets NOT MET.

Observe how each entry below is paired with its result.
compound: COc1ccc(C(CCc2c[nH]cn2)c2ccc(OC)cc2)cc1 [Compound 22]
experimentalSystem: desmolase
assignedCategory: MET

compound: Fc1ccc(C(CCc2c[nH]cn2)c2ccc(F)cc2)cc1 [Compound 27]
experimentalSystem: desmolase
assignedCategory: MET

compound: Fc1ccc(C(CCc2c[nH]cn2)c2ccccc2)cc1 (stereo not shown) [Compound 26]
experimentalSystem: desmolase
assignedCategory: NOT MET

compound: Cc1ccc(C(CCc2c[nH]cn2)c2ccc(C)cc2)cc1 [Compound 18]
experimentalSystem: desmolase
assignedCategory: MET

compound: Fc1cccc(C(CCc2c[nH]cn2)c2cccc(F)c2)c1 [Compound 19]
experimentalSystem: desmolase
assignedCategory: MET

Then this compound:
IC50 under 50 µM? Item: Cc1cccc(C(CCc2c[nH]cn2)c2cccc(C)c2)c1 [Compound 11] MET

###

Parameter: IC90. Scope: all listed entries.
experimentalSystem: human aromatase (Homo sapiens)
Construct: The enzyme preparation was used without further purification; from tissue; host or cells: human placenta, microsomal fraction (100000×g precipitate)
Sequence (P11511 whole entry): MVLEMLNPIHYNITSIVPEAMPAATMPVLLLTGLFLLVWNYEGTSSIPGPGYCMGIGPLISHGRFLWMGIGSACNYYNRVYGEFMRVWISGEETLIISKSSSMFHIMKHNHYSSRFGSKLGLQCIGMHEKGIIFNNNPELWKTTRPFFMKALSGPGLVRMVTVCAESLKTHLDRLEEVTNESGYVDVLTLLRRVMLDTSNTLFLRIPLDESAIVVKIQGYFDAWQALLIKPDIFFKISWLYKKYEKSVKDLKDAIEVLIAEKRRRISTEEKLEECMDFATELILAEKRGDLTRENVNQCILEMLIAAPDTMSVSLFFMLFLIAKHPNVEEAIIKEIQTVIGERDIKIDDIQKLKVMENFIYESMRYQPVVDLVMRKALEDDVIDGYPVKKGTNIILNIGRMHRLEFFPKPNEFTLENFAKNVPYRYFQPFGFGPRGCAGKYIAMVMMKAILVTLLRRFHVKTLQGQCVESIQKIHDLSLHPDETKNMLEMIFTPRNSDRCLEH
runDescription: In vitro inhibition of human placental aromatase (3H2O release from 1,2[3H]-androstene-3,17-dione)
Type: biochemical
experimentalParameters: read-out: AROMATASE IC-90

compound: Cc1cccc(C(=CCc2c[nH]cn2)c2cccc(C)c2)c1
IC90: 1 mM
--
compound: Cc1ccccc1C(=CCc1c[nH]cn1)c1ccccc1C
IC90: > 1 mM
--
compound: c1ccc(Cn2cncc2CCC(c2ccccc2)c2ccccc2)cc1
IC90: 0.1 mM

Read the next record carefully.
Fill in the blank: the reported IC90 of OC(CCc1c[nH]cn1)(c1ccccc1)c1ccccc1 is ____. 1 mM

###

experimentalSystem: human aromatase (Homo sapiens)
Construct: The enzyme preparation was used without further purification; from tissue; host or cells: human placenta, microsomal fraction (100000×g precipitate)
runDescription: In vitro inhibition of human placental aromatase (3H2O release from 1,2[3H]-androstene-3,17-dione)
Assay type: biochemical
Parameter: IC50. Scope: all listed entries.
A number alone suffices; assume µM.

These solved cases illustrate the format of a correct answer.
compound: Cc1ccccc1C(O)(CCc1c[nH]cn1)c1ccccc1C
IC50, µM: 300

compound: C(Cc1cncn1Cc1ccccc1)=C(c1ccccc1)c1ccccc1
IC50, µM: 50

compound: COc1cccc(C(=CCc2cncn2Cc2ccccc2)c2cccc(OC)c2)c1
IC50, µM: 14

compound: C(Cc1c[nH]cn1)=C(c1ccccc1)c1ccccc1
IC50, µM: 6

compound: Cc1ccccc1C(=CCc1c[nH]cn1)c1ccccc1C
IC50, µM: 80

compound: Clc1ccc(C(=CCc2c[nH]cn2)c2ccc(Cl)cc2)cc1
IC50, µM: 35

Fill in the blank: the reported IC50 of Cc1cccc(C(=CCc2c[nH]cn2)c2cccc(C)c2)c1 is ____. 62

###

Parameter: IC50. Scope: all listed entries.
experimentalSystem: human aromatase (Homo sapiens)
Construct: The enzyme preparation was used without further purification; from tissue; host or cells: human placenta, microsomal fraction (100000×g precipitate)
runDescription: In vitro inhibition of human placental aromatase (3H2O release from 1,2[3H]-androstene-3,17-dione)
Assay type: biochemical
experimentalParameters: read-out: AROMATASE IC-50
A number alone suffices; assume µM.

compound: Cc1cc(C)cc(C(CCc2c[nH]cn2)c2cc(C)cc(C)c2)c1
experimentalSystem: human aromatase (Homo sapiens)
IC50 [µM]: 130

compound: C(=CC(c1ccccc1)c1ccccc1)c1cncn1Cc1ccccc1
experimentalSystem: human aromatase (Homo sapiens)
IC50 [µM]: 14

Fill in the blank: the reported IC50 of c1ccc(CCC(CCc2cncn2Cc2ccccc2)c2ccccc2)cc1 (stereo not drawn) is ____. 17
